# Tested on: T1, hen egg white lysozyme (hen, UniProt P00698 19-147, biotinylated (HEL-b); sites not stated)
# T1 construct: also called lyzozyme; HEL-b (biotinylated)
# T1 sequence (P00698 19-147 limits assumed): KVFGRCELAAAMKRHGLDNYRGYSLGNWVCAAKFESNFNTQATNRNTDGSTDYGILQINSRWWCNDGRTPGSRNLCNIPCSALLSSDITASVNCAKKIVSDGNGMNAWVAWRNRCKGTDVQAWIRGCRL
# Experiment notes: yeast display selection
Observation type: binding result

Binder | Val
SEQ ID NO 113 (designed binder) VSDVPRDLEVVAATPTSLLISWDAPAVTVRYYRITYGERRGQYGSSQEFTVPGSKSTATISSPEGSVDYTITVYAVTGRGESPASSKPISINYSRSE | binds
SEQ ID NO 80 (designed binder) VSDVPRDLEVVAATPTSLLISWDAPAVTVRYYRITYGESRRSYPQEFTVPGSKSTATISSSHRSVDYTITVYAVTGRGESPASSKPISINYRSYL | binds
